assay: Plasma protein binding; format: in vitro ADME; settings: bovine, 10% plasma (plasma dilution in PBS), 10% calf; read-out: PPB fu 10% Calf
parameter: fraction unbound at 5 h, 3 µmol/L
# output: bare number, no unit

The following molecules have reported results that may help.
{"molecule": "Cc1ncsc1-c1ccc([C@H](COC(C)CN2CCC(c3ccc4c(c3)n(C3CCCC3)c3nc(=O)c5c(Br)cccc5n43)CC2)NC(=O)[C@@H]2C[C@@H](O)CN2C(=O)[C@@H](NC(=O)C2(F)CC2)C(C)(C)C)cc1 (stereo partly shown)", "fraction unbound at 5 h, 3 µmol/L": 0.0538}
{"molecule": "Cc1ncsc1-c1ccc(C(CCC(C)CCN2CCC(c3ccc4c(c3)n(C3CCCC3)c3nc(=O)c5c(Br)cccc5n43)CC2)NC(=O)C2CC(O)CN2C(=O)C(NC(=O)C2(F)CC2)C(C)(C)C)cc1 (stereo not shown)", "fraction unbound at 5 h, 3 µmol/L": 0.00349}

Consider now this further molecule.
Ask: I would be grateful if you could share the reported fraction unbound at 5 h, 3 µmol/L for Cc1ncsc1-c1ccc([C@H](COC(C)CN2CCC(c3ccc4c(c3)n(C3CCCC3)c3nc(=O)c5c(Br)cccc5n43)CC2)NC(=O)[C@@H]2C[C@@H](O)CN2C(=O)[C@@H](NC(=O)C2(N(C)C)CC2)C(C)(C)C)cc1 (stereo partly shown) .
Result: 0.0548

* * *

assay: Cell viability assay (CellTiter Glo) in a panel of cell lines; type: cell-based, human; conditions: human, MP38 cells, MP38; log10 conc -6.50031 mol/l;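 further: percent of DMSO-treated control cells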
parameter: viability at 0.316 µM
Form field: result (number plus unit)

Ask: Would you kindly share the measured viability at 0.316 µM for Cc1ncsc1-c1ccc(C(CCC(C)CCN2CCC(c3ccc4c(c3)n(C3CCCC3)c3nc(=O)c5c(Br)cccc5n43)CC2)NC(=O)C2CC(O)CN2C(=O)C(NC(=O)C2(F)CC2)C(C)(C)C)cc1 (stereo not shown) [ACBI2] ?
Result: 0.609%

* * *

biological target: SMARCA2^BD (Homo sapiens, UniProt P51531); construct: P51531-2, residues 1373-1493 with additional N-terminal SM residues; GST (TEV site) (N, cleaved yes); made in house; host or cells: Escherichia coli BL21(DE3); experiment: SPR binding to immobilised SMARCA2 bromodomain; conditions: SPR, SMARCA2BD; mean ± SD; read-out: SMARCA2 KD
Sequence (P51531 1373-1493 isoform P51531-2): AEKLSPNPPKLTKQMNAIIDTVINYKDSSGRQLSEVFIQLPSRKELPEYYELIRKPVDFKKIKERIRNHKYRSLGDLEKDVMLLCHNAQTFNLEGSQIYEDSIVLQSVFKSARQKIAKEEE
Kd values by entry
Reply with just the number (in nM).

Some entries whose results are on file:
{"molecule": "CN1CCN(c2nc(=O)c3c(Br)cccc3o2)CC1", "Kd, nM": 9000}
{"molecule": "Cc1ncsc1-c1ccc([C@H](COCCCN2CCC(c3ccc4c(c3)n(C3CCCC3)c3nc(=O)c5c(Br)cccc5n43)CC2)NC(=O)[C@@H]2C[C@@H](O)CN2C(=O)[C@@H](NC(=O)C2(F)CC2)C(C)(C)C)cc1", "Kd, nM": 217}
{"molecule": "Cc1ncsc1-c1ccc([C@H](CC[C@@H](C)CCN2CCC(c3ccc4c(c3)n(C3CCCC3)c3nc(=O)c5c(Br)cccc5n43)CC2)NC(=O)[C@@H]2C[C@@H](O)CN2C(=O)[C@@H](NC(=O)C2(F)CC2)C(C)(C)C)cc1", "Kd, nM": 255}

Ask: Which measured Kd value corresponds to Cc1ncsc1-c1ccc([C@H](COC(C)CN2CCC(c3ccc4c(c3)n(C3CCCC3)c3nc(=O)c5c(Br)cccc5n43)CC2)NC(=O)[C@@H]2C[C@@H](O)CN2C(=O)[C@@H](NC(=O)C2(N(C)C)CC2)C(C)(C)C)cc1 (stereo partly drawn) ?
Result: 222

Ask: Okay, and CN1CCN(c2nc(=O)c3c(I)cccc3o2)CC1 ?
Result: 17900

Ask: Please give the result for Cc1ncsc1-c1ccc(CNC(=O)[C@@H]2C[C@H](O)CN2C(=O)[C@@H](NC(=O)C2(F)CC2)C(C)(C)C)c(OCCN2CCC(c3ccc4c(c3)n(C3CCCC3)c3nc(=O)c5c(Br)cccc5n43)CC2)c1 too.
Result: 64
